B1: Hairpin Ribozyme (parent)
chain: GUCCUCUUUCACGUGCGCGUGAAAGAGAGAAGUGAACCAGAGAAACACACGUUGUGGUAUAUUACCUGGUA

Variants of: B1
Test: self-cleavage, relative activity (ratio to wild type); higher = more cleavage; co-transcriptional
assay_metric: self-cleavage
Write no unit; give the number alone.

Value of self-cleavage reported for the variant G42C G69U is 0.157

G27A U33A has a reported self-cleavage of 0.0964

Per the record, U8G A49C has self-cleavage of 0.108

The variant identified as U53C U67C registered its self-cleavage at 0.279

Entry under test: C46G A71G . Its self-cleavage was 0.166

The origin of these recorded values is the RNAGym collection of RNA variant scans (doi:10.7554/elife.80360).
